Target: Tyrosine-protein kinase Srms (Homo sapiens) (UniProt Q9H3Y6)
Sequence (Q9H3Y6 whole entry): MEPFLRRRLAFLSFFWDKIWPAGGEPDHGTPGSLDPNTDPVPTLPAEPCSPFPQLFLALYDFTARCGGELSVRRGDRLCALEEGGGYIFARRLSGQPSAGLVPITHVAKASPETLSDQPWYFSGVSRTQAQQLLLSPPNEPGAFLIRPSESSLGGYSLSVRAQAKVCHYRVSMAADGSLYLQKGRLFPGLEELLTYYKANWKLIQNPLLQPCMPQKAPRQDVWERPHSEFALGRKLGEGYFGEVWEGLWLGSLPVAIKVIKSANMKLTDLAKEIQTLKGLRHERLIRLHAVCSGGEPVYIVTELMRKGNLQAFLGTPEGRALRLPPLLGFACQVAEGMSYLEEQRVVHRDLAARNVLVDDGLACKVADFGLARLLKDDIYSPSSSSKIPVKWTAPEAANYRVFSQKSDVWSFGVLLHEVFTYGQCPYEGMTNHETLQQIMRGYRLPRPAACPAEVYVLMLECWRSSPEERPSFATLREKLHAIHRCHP
Settings: at 1 µM
Description: GSK_PKIS: SRMS mean inhibition at 1 uM [Nanosyn]
Please go through the items and note down their inhibition.
Your reply should be a number followed by the unit it is expressed in.

Prompt: Reported inhibition, molecule CCn1c(-c2nonc2N)nc2c(C#CCN)ncc(OCCCN)c21 : ____
Completion: 1.96%

Prompt: Reported inhibition, molecule COc1cccc(-n2ncc3c(N/N=C/c4ccncc4)ncnc32)c1 : ____
Completion: 14.3%

Prompt: Reported inhibition, molecule COc1cc2c(cc1Nc1nc(Nc3ccsc3C(N)=O)c3cc[nH]c3n1)N(C(=O)CN(C)C)CCC2 : ____
Completion: 3.93%

Prompt: Reported inhibition, molecule COc1cccc(COc2cc(-n3cnc4ccccc43)sc2C(N)=O)c1 : ____
Completion: -1.46%

Prompt: Reported inhibition, molecule NS(=O)(=O)c1ccc(N/C=C2\C(=O)Nc3ccc4ncsc4c32)cc1 : ____
Completion: -1.72%

Prompt: Reported inhibition, molecule COc1cc(C=NNc2ncnc3c2cnn3Cc2ccccc2)ccc1O : ____
Completion: 4.66%

Prompt: Reported inhibition, molecule CCn1c(-c2nonc2N)nc2c(C#CC(C)(C)O)ncc(OC[C@@H]3CCCN3)c21 : ____
Completion: 0.87%

Prompt: Reported inhibition, molecule CCn1c(-c2nonc2N)nc2c(C#CC(C)(C)O)ncc(OCC3CCNCC3)c21 : ____
Completion: 1.57%

Every entry's value here was drawn from ChEMBL document CHEMBL1961873.
